System: MDA-MB-231
assay-name: normalised response (% of control), CellTiter-Glo; higher = more viable cells (100 = DMSO, 0 = benzethonium chloride kill control)
cond: incubation time: 72 h
endpoint-label: normalised response

CCS(=O)(=O)c1cccc(-c2cc(C(=O)NC3CCN(C)CC3)c(C)c3[nH]c4ncc(C)cc4c23)c1 [TAK-901] (100 nM) :: 77.6%
CCCC(CCC)C(=O)O [Valproic acid] (100000 nM) :: 98.7%

### Prompt So what does the record say about normalised response for C#Cc1cccc(Nc2ncnc3cc(OC)c(OCCCCCCC(=O)NO)cc23)c1 [CUDC-101] (10 nM) ?
### Response 98.1%

### Prompt Can you look up the measured normalised response of COc1c(C)cnc(Cn2cnc3c(Cl)nc(N)nc32)c1C [BIIB021] (1000 nM) for me?
### Response 25.5%
